# Measured Target: Gal4S6S(b1-4)GlcNAc
# Experiment Summary: glycan array binding signal (z-score within array); higher = stronger binding
# Stated Conditions: glycan notation: IUPAC condensed, linker removed
Only a selection was taken, and the strongest signals are over-represented in it overall.
A collection of binders and their measured glycan array binding signal (z-score)

Below, 3 binders whose answers are already recorded.
Epa9 (Candida glabrata), CAGL0A01386g (protein) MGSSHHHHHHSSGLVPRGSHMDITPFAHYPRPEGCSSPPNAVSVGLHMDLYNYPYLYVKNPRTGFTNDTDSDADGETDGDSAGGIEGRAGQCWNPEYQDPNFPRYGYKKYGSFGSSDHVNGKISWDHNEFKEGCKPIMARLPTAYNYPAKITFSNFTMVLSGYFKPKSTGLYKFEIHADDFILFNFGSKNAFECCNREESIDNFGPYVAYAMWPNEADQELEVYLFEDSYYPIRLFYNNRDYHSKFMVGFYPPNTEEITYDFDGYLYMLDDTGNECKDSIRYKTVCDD	-0.491
FaeGac (Escherichia coli) (protein) WMTGDFNGSVDIGGSITADDYRQKWEWKVGTGLNGFGNVLNDLTNGGTKLTITVTGNKPILLGRTKEAFATPVTGGVDGIPHIAFTDYEGASVVLRNPDGETNKKGLAYFVLPMKNAEGTKVGSVKVNASYAGVLGRGGVTSADGELLSLFADGLSSIFYGGLPRGSELSAGSAAAERTKLFGSLSRNDILGQIQRVNANITSLVDVAGSYRENMEYTDGTVVSAAYALGIANGQTIEATFNQAVTTSTQWSAPLNVAITYY	-0.495
Clone730PsrP (Streptococcus pneumoniae) (protein) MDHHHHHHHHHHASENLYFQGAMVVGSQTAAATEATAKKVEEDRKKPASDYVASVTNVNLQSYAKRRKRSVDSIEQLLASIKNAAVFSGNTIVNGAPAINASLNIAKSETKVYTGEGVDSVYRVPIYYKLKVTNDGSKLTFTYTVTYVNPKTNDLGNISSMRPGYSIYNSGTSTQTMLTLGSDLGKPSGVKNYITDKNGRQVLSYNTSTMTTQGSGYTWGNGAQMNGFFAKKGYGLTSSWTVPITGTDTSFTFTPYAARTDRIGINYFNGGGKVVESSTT	-0.324

[Q] Please give measured glycan array binding signal (z-score) of the following entry: Clone646PsrP (Streptococcus pneumoniae) (protein) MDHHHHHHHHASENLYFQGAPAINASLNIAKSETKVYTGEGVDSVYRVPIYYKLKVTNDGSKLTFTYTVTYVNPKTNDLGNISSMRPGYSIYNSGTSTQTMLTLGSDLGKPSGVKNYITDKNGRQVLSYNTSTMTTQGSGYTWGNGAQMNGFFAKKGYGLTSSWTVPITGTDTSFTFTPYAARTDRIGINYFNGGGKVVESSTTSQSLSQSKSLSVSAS
[A] 0.386

Origin of values: the supplement of paper PMC8728848
